The reported numbers originate from the supplement of paper PMC10307832.

- Test system: NCI-H1993
- protocolSummary: relative viability (nuclei count vs DMSO), 5 days (fraction); higher = more cells survive
- studyConditions: first compound 0.02 µM
Below, each entry is listed alongside its reported relative viability.
measuredMetric: relative viability

- compound: "CN1CCN(CCOc2cc(OC3CCOCC3)c3c(Nc4c(Cl)ccc5c4OCO5)ncnc3c2)CC1 [Saracatinib] + Cc1cc(Nc2cc(N3CCN(C)CC3)nc(Sc3ccc(NC(=O)C4CC4)cc3)n2)n[nH]1 [Tozasertib] (partner 0.1 µM)"
  measuredMetric: "relative viability"
  observedResult: 0.6
- compound: "CCNC(=O)c1noc(-c2cc(C(C)C)c(O)cc2O)c1-c1ccc(CN2CCOCC2)cc1 [Luminespib] + CC1(C)CCC(c2ccc(Cl)cc2)=C(CN2CCN(c3ccc(C(=O)NS(=O)(=O)c4ccc(N[C@H](CCN5CCOCC5)CSc5ccccc5)c(S(=O)(=O)C(F)(F)F)c4)cc3)CC2)C1 [Navitoclax] (partner 0.5 µM)"
  measuredMetric: "relative viability"
  observedResult: 0.762
- compound: "CCNC(=O)c1noc(-c2cc(C(C)C)c(O)cc2O)c1-c1ccc(CN2CCOCC2)cc1 [Luminespib] + COc1cccc2cc(-c3nc([C@H]4CC[C@H](C(=O)O)CC4)n4ncnc(N)c34)[nH]c12 [OSI-027] (partner 0.5 µM)"
  measuredMetric: "relative viability"
  observedResult: 0.562
- compound: "CN1CCN(CCOc2cc(OC3CCOCC3)c3c(Nc4c(Cl)ccc5c4OCO5)ncnc3c2)CC1 [Saracatinib] + COc1cc2c(Oc3ccc(NC(=O)C4(C(=O)Nc5ccc(F)cc5)CC4)cc3F)ccnc2cc1OCCCN1CCOCC1 [Foretinib] (partner 0.25 µM)"
  measuredMetric: "relative viability"
  observedResult: 0.692
- compound: "CN1CCN(CCOc2cc(OC3CCOCC3)c3c(Nc4c(Cl)ccc5c4OCO5)ncnc3c2)CC1 [Saracatinib] + COc1cccc2cc(-c3nc([C@H]4CC[C@H](C(=O)O)CC4)n4ncnc(N)c34)[nH]c12 [OSI-027] (partner 0.5 µM)"
  measuredMetric: "relative viability"
  observedResult: 0.54
- compound: "CCNC(=O)c1noc(-c2cc(C(C)C)c(O)cc2O)c1-c1ccc(CN2CCOCC2)cc1 [Luminespib] + Cc1cc(Nc2cc(N3CCN(C)CC3)nc(Sc3ccc(NC(=O)C4CC4)cc3)n2)n[nH]1 [Tozasertib] (partner 0.1 µM)"
  measuredMetric: "relative viability"
  observedResult: 0.533
- compound: "CCNC(=O)c1noc(-c2cc(C(C)C)c(O)cc2O)c1-c1ccc(CN2CCOCC2)cc1 [Luminespib] + COc1cc2c(Oc3ccc(NC(=O)C4(C(=O)Nc5ccc(F)cc5)CC4)cc3F)ccnc2cc1OCCCN1CCOCC1 [Foretinib] (partner 0.25 µM)"
  measuredMetric: "relative viability"
  observedResult: 0.632

###

- Tested on: NCI-H1651
- protocolSummary: relative viability (nuclei count vs DMSO), 5 days (fraction); higher = more cells survive
- studyConditions: first compound 0.2 µM
Below, each entry is listed alongside its reported relative viability.

- molecule: "CN1CCN(CCOc2cc(OC3CCOCC3)c3c(Nc4c(Cl)ccc5c4OCO5)ncnc3c2)CC1 [Saracatinib] + Nc1nc2[nH]cc(CCc3ccc(C(=O)N[C@@H](CCC(=O)O)C(=O)O)cc3)c2c(=O)[nH]1 [Pemetrexed] (partner 0.2 µM)"
  assayTarget: "NCI-H1651"
  relative viability: 0.566
- molecule: "Cc1csc(=NC2CCCCC2)n1/N=C/c1ccc(O)c(O)c1O [MIM1] + COc1cc2c(Oc3ccc(NC(=O)C4(C(=O)Nc5ccc(F)cc5)CC4)cc3F)ccnc2cc1OCCCN1CCOCC1 [Foretinib] (partner 0.25 µM)"
  assayTarget: "NCI-H1651"
  relative viability: 0.722
- molecule: "CCNC(=O)c1noc(-c2cc(C(C)C)c(O)cc2O)c1-c1ccc(CN2CCOCC2)cc1 [Luminespib] + N=C(N)NC(=N)NCCc1ccccc1 [Phenformin] (partner 250 µM)"
  assayTarget: "NCI-H1651"
  relative viability: 0.141
- molecule: "Cc1csc(=NC2CCCCC2)n1/N=C/c1ccc(O)c(O)c1O [MIM1] + CS(=O)(=O)CCNCc1ccc(-c2ccc3ncnc(Nc4ccc(OCc5cccc(F)c5)c(Cl)c4)c3c2)o1 [Lapatinib] (partner 2 µM)"
  assayTarget: "NCI-H1651"
  relative viability: 0.883

###

- Test system: NCI-H1755
- protocolSummary: relative viability (nuclei count vs DMSO), 5 days (fraction); higher = more cells survive
- studyConditions: first compound 2.53 µM
Consider the cut-off 0.6. If the recorded relative viability is strictly smaller, the label is label 1; if not, the label is label 0.

- compound: "Nc1cccc2c1CN(C1CCC(=O)NC1=O)C2=O (stereo not drawn) [Lenalidomide] + CC(=O)Nc1cccc(-n2c(=O)n(C3CC3)c(=O)c3c(Nc4ccc(I)cc4F)n(C)c(=O)c(C)c32)c1 [Trametinib] (partner 0.02 µM)"
  assignedClass: "label 0"
- compound: "Nc1cccc2c1CN(C1CCC(=O)NC1=O)C2=O (stereo not drawn) [Lenalidomide] + NC(=O)Nc1cc(-c2cccc(F)c2)sc1C(=O)N[C@H]1CCCNC1 [AZD7762] (partner 0.2 µM)"
  assignedClass: "label 1"
- compound: "Nc1cccc2c1CN(C1CCC(=O)NC1=O)C2=O (stereo not drawn) [Lenalidomide] + CS(=O)(=O)N1CCN(Cc2cc3nc(-c4cccc5[nH]ncc45)nc(N4CCOCC4)c3s2)CC1 [Pictilisib] (partner 1 µM)"
  assignedClass: "label 1"
- compound: "Nc1cccc2c1CN(C1CCC(=O)NC1=O)C2=O (stereo not drawn) [Lenalidomide] + N=C(N)NC(=N)NCCc1ccccc1 [Phenformin] (partner 250 µM)"
  assignedClass: "label 0"
- compound: "Nc1cccc2c1CN(C1CCC(=O)NC1=O)C2=O (stereo not drawn) [Lenalidomide] + C[C@@H](Oc1cc(-c2cnn(C3CCNCC3)c2)cnc1N)c1c(Cl)ccc(F)c1Cl [Crizotinib] (partner 1 µM)"
  assignedClass: "label 0"
- compound: "Nc1cccc2c1CN(C1CCC(=O)NC1=O)C2=O (stereo not drawn) [Lenalidomide] + O=C(CCCCCCC(=O)Nc1ccccc1)NO [Vorinostat] (partner 1 µM)"
  assignedClass: "label 0"

###

Below, each entry is listed alongside its reported relative viability.
- System: NCI-H1666
- protocolSummary: relative viability (nuclei count vs DMSO), 5 days (fraction); higher = more cells survive
- studyConditions: first compound 2 µM

- molecule: "CN1CCN(CCOc2cc(OC3CCOCC3)c3c(Nc4c(Cl)ccc5c4OCO5)ncnc3c2)CC1 [Saracatinib] + Nc1ncn([C@H]2C[C@H](O)[C@@H](CO)O2)c(=O)n1 [Decitabine] (partner 2 µM)"
  relative viability: 0.756
- molecule: "Cc1csc(=NC2CCCCC2)n1/N=C/c1ccc(O)c(O)c1O [MIM1] + CC(=O)c1c(C)c2cnc(Nc3ccc(N4CCNCC4)cn3)nc2n(C2CCCC2)c1=O [Palbociclib] (partner 0.5 µM)"
  relative viability: 0.611
- molecule: "Cc1csc(=NC2CCCCC2)n1/N=C/c1ccc(O)c(O)c1O [MIM1] + Nc1ncn([C@H]2C[C@H](O)[C@@H](CO)O2)c(=O)n1 [Decitabine] (partner 2 µM)"
  relative viability: 0.665
- molecule: "CN1CCN(CCOc2cc(OC3CCOCC3)c3c(Nc4c(Cl)ccc5c4OCO5)ncnc3c2)CC1 [Saracatinib] + NC(=O)Nc1cc(-c2cccc(F)c2)sc1C(=O)N[C@H]1CCCNC1 [AZD7762] (partner 0.2 µM)"
  relative viability: 0.847
- molecule: "Cc1csc(=NC2CCCCC2)n1/N=C/c1ccc(O)c(O)c1O [MIM1] + O=C(c1cc(Cc2n[nH]c(=O)c3ccccc23)ccc1F)N1CCN(C(=O)C2CC2)CC1 [Olaparib] (partner 8 µM)"
  relative viability: 0.665
- molecule: "Cc1csc(=NC2CCCCC2)n1/N=C/c1ccc(O)c(O)c1O [MIM1] + Cc1cc(Nc2cc(N3CCN(C)CC3)nc(Sc3ccc(NC(=O)C4CC4)cc3)n2)n[nH]1 [Tozasertib] (partner 0.1 µM)"
  relative viability: 0.575
- molecule: "Cc1csc(=NC2CCCCC2)n1/N=C/c1ccc(O)c(O)c1O [MIM1] + Cc1nc(Nc2ncc(C(=O)Nc3c(C)cccc3Cl)s2)cc(N2CCN(CCO)CC2)n1 [Dasatinib] (partner 0.075 µM)"
  relative viability: 0.711

###

- Tested on: COR-L23
- protocolSummary: relative viability (nuclei count vs DMSO), 5 days (fraction); higher = more cells survive
- studyConditions: first compound 20 µM
measuredMetric: relative viability

- compound: "Cc1csc(=NC2CCCCC2)n1/N=C/c1ccc(O)c(O)c1O [MIM1] + O=C(CCCCCCC(=O)Nc1ccccc1)NO [Vorinostat] (partner 1 µM)"
  assayTarget: "COR-L23"
  measuredMetric: "relative viability"
  observedResult: 0.162
- compound: "Cc1csc(=NC2CCCCC2)n1/N=C/c1ccc(O)c(O)c1O [MIM1] + CC1(C)CCC(c2ccc(Cl)cc2)=C(CN2CCN(c3ccc(C(=O)NS(=O)(=O)c4ccc(N[C@H](CCN5CCOCC5)CSc5ccccc5)c(S(=O)(=O)C(F)(F)F)c4)cc3)CC2)C1 [Navitoclax] (partner 0.5 µM)"
  assayTarget: "COR-L23"
  measuredMetric: "relative viability"
  observedResult: 0.515
- compound: "Cc1csc(=NC2CCCCC2)n1/N=C/c1ccc(O)c(O)c1O [MIM1] + CS(=O)(=O)CCNCc1ccc(-c2ccc3ncnc(Nc4ccc(OCc5cccc(F)c5)c(Cl)c4)c3c2)o1 [Lapatinib] (partner 2 µM)"
  assayTarget: "COR-L23"
  measuredMetric: "relative viability"
  observedResult: 0.286
- compound: "Cc1csc(=NC2CCCCC2)n1/N=C/c1ccc(O)c(O)c1O [MIM1] + COc1cccc2cc(-c3nc([C@H]4CC[C@H](C(=O)O)CC4)n4ncnc(N)c34)[nH]c12 [OSI-027] (partner 0.5 µM)"
  assayTarget: "COR-L23"
  measuredMetric: "relative viability"
  observedResult: 0.382
